Test Method Notes: Metabolic stability in human liver microsomes assessed as parent compound remaining at […] after 10 mins
Type: ADME, microsome
Test Parameters: read-out: Stability
Measurement Type: remaining at 10 min

> print(dat)
                    structure.smiles.string  experimental.value
1  Cc1nc(-c2cccc3ccccc23)sc1C(=O)N(C)CCc1cccnc1                < 1%
2        Cn1nc(-c2cccc3ccccc23)cc1-c1cccnn1                 12%
3    Cc1nc(-c2cccc3ccccc23)sc1C(=O)N1CCCCC1                 24%
4    COCCN(C)C(=O)c1sc(-c2cccc3ccccc23)nc1C                 28%

###

Test Method Notes: Metabolic stability in human liver microsomes assessed as parent compound remaining at […] after 10 mins
Type: ADME, microsome
Test Parameters: read-out: Stability
Entries annotated with measured remaining at 10 min
Measurement Type: remaining at 10 min (%)

> print(dat)
                    structure.smiles.string     measurement.type  experimental.value
1  Cc1oc(-c2cccc3ccccc23)nc1C(=O)N1CCC(CO)CC1  remaining at 10 min                  62
2  Cc1nn(-c2cccc3ccccc23)cc1C(=O)N1CCC(CO)CC1  remaining at 10 min                  88
3  Cc1nc(-c2cccc3ccccc23)sc1C(=O)N(CCO)C(C)C  remaining at 10 min                  28
4  Cc1[nH]c(-c2cccc3ccccc23)cc1C(=O)N1CCC(CO)CC1  remaining at 10 min                  76
5  Cc1nc(-c2cccc3ccccc23)sc1C(=O)N1CCC(CO)CC1  remaining at 10 min                  80
6  Cn1nc(-c2cccc3ccccc23)cc1C(=O)N1CCC(CO)CC1  remaining at 10 min                  92
7       CCn1nc(-c2cccc3cccnc23)cc1-c1cccnn1  remaining at 10 min                   8

###

Entries annotated with measured pEC50
Measurement Target: 5-hydroxytryptamine receptor 2C (Homo sapiens)
Sequence (P28335 whole entry): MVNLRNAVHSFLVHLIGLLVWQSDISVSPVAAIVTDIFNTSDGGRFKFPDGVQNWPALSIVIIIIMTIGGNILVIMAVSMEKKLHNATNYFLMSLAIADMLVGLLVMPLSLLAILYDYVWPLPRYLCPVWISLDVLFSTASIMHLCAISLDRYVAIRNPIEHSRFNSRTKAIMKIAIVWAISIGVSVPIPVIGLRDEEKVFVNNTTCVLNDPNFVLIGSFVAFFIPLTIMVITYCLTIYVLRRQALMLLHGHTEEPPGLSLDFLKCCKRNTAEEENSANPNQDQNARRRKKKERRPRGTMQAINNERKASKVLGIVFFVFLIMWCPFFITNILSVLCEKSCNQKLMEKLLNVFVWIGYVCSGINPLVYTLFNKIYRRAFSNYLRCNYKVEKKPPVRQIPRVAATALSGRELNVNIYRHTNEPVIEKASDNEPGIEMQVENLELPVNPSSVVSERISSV
Test Method Notes: Agonist activity at recombinant human 5-HT2C receptor expressed in HEK293E cells assessed as induction of intracellular Ca2+ levels after 90 secs by Fluo-4-dye based FLIPR assay
pEC50: −log10 of the molar value.
Measurement Type: pEC50

> print(dat)
                    structure.smiles.string                        measurement.target  measurement.type  experimental.value
1       CCn1nc(-c2cccc3ccccc23)cc1-c1ccnn1C  5-hydroxytryptamine receptor 2C (Homo sapiens)             pEC50        5.30 to 5.46
2       CCn1nc(-c2cccc3ccccc23)cc1-c1ncnn1C  5-hydroxytryptamine receptor 2C (Homo sapiens)             pEC50        6.21 to 6.72
3       CCn1nc(-c2ccnc3ccccc23)cc1-c1cccnn1  5-hydroxytryptamine receptor 2C (Homo sapiens)             pEC50        6.40 to 6.50
4  Cc1nc(-c2cccc3ccccc23)oc1C(=O)N1CCC(CO)CC1  5-hydroxytryptamine receptor 2C (Homo sapiens)             pEC50        6.85 to 7.20
5  Cc1nc(-c2cccc3ccccc23)sc1C(=O)N1CCC(CO)CC1  5-hydroxytryptamine receptor 2C (Homo sapiens)             pEC50                8.22
6  O=C(c1csc(-c2cccc(Cl)c2Cl)n1)N1CCC(O)CC1  5-hydroxytryptamine receptor 2C (Homo sapiens)             pEC50        6.08 to 6.17
7  Cc1sc(-c2cccc3ccccc23)cc1C(=O)N1CCC(CO)CC1  5-hydroxytryptamine receptor 2C (Homo sapiens)             pEC50        6.92 to 7.33
8  Cc1nc(-c2cccc3ccccc23)sc1C(=O)N(C)Cc1cccnc1  5-hydroxytryptamine receptor 2C (Homo sapiens)             pEC50        7.82 to 7.92
9  Cn1nc(-c2cccc3ccccc23)cc1C(=O)N1CCC(CO)CC1  5-hydroxytryptamine receptor 2C (Homo sapiens)             pEC50                8.22
